Numbers sourced from patent US5681708A.

testedSystem: CD4/Lck protein complex (Homo sapiens, UniProt P01730+P06239)
Construct: Detergent extracts of CEM cells were prepared by pelleting cells; endogenous in cells; host or cells: CEM (ATCC CCL 119), acute lymphoblastic CD4-positive human T-cell line; diluted detergent (NP-40) extract
Sequence (P06239 2-509 limits assumed, other chains not shown): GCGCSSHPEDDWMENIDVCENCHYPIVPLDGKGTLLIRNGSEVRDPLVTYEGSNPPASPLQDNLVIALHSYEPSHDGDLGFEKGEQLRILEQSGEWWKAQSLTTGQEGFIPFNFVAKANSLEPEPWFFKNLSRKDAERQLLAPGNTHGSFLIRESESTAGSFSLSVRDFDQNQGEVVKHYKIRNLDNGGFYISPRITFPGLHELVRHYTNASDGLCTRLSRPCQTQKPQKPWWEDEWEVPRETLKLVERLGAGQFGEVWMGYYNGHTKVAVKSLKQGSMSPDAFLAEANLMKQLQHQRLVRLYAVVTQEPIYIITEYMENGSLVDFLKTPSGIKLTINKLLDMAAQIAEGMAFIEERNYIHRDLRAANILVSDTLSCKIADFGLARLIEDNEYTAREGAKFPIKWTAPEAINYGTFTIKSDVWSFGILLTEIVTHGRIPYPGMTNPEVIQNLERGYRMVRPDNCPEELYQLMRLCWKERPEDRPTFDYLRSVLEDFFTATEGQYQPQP
experimentNotes: CD4/Lck Dissociation Assay (ELISA-based, CEM cell extracts)
Assay type: biochemical
assaySetup: CEM cell detergent extract, 30 min at 30° C., OKT4 capture, C-Lck detection; read-out: IC50, concentration of test compound which dissociated 50% of the target CD4/Lck protein complex relative to controls
endpointLabel: IC50

Record excerpt, results attached:
molecule: N#CC(C#N)=Cc1ccc(O)c(O)c1 [LC-A23]
testedSystem: CD4/Lck protein complex (Homo sapiens, UniProt P01730+P06239)
IC50: > 500 µM

molecule: N#C/C(=C\c1ccc(O)c(O)c1)C(N)=O [LC-A46]
testedSystem: CD4/Lck protein complex (Homo sapiens, UniProt P01730+P06239)
IC50: 300 µM

API: the following record is the query input.
Record for CCCCCCCCCCCC1N=C(N)N2CCCC2=C1C(=O)OCCCCNC(=N)N (stereo not drawn) [Crambine A] under target or system CD4/Lck protein complex (Homo sapiens, UniProt P01730+P06239): IC50 reported as < 100 µM
